experiment: basal RPMI8226 viability, no added stimulus, profiling panel, cell-based, calcein-AM fluorescence, 48 h, PK04 Diversity Set (AID 1166); conditions: RPMI8226 myeloma viability, higher = more signal;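 note: cells grown under basal conditions without added stimulus; test concentration not given here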
Label 1 (yes) when z-score is strictly below -0.8; otherwise label 0 (no).

The examples below pair each entry with its known result.
Compound	Label Value
C=C(CCCC)C(=O)CC[C@@H](OC(=O)c1ccccc1-c1ccccc1C(=O)O)c1ccc(OCCO)cc1	1 (yes)
COC(=O)[C@@]1(Cc2ccc(OC)cc2)[C@H]2c3cc(C(=O)N(C)C)n(C)c3C[C@H]2CN1C(=O)c1ccccc1	1 (yes)
CCCCC(CC)C(O)C1C=CC2C(=O)N(Cc3ccccc3)C(=O)C2N1n1cnnc1 (stereo not given)	0 (no)
CC(C)C[C@@H]1NC(=O)[C@@H]2C[C@H](C(=O)NCc3ccc(F)cc3)[C@H](c3cccc(OCCO)c3)N2C1=O	0 (no)
Cc1nc2cc(Br)ccc2c(=O)o1	0 (no)

Is -0.8 strictly greater than the compound's reported z-score? compound: `CC(C)N1C(=O)C[C@@](C(=O)NCC(F)(F)F)(c2ccc([N+](=O)[O-])cc2)[C@H]1c1ccc(CO)cc1` 1 (yes)

Is z-score of `CC(C)CNC(=O)[C@@]1(Cc2ccccc2I)c2ccccc2C(=O)N(C2CCCCC2)[C@H]1c1ccc(CO)cc1` strictly below -0.8? 1 (yes)

Does the reported z-score of the following compound sit strictly below -0.8? `O=C1C[C@]2(c3ccc([N+](=O)[O-])cc3)C(=O)N(CC(F)(F)F)c3cc(CO)ccc3[C@H]2N1C1CCCCC1` 0 (no)

Bench note: check whether CC(C)C(CO)N1C(=O)[C@@H]2C3C(=O)OCCC/C=C\[C@H]3OC23C=CCN(CCN2CCOCC2)C(=O)[C@@H]13 (stereo not given in full) shows z-score below -0.8 0 (no)
